- System: MDR-EAEC isolates
- Assay explanation: In vitro antibiotic susceptibility testing of MDR-EAEC isolates
- Type: cell-based, enteroaggregative Escherichia coli
- Set-up: key: S – Sensitive; R- Resistant
- Condition description: KY941937.1 (MDR 2)

# Compound, Experimental system, Antibiotic Susceptibility testing
measured = [
    ("CC1(C)S[C@@H]2[C@H](NC(=O)[C@H](N)c3ccccc3)C(=O)N2[C@H]1C(=O)O [AMP, Ampicillin]", "MDR-EAEC isolates", "R"),
    ("C[C@@H](O)[C@H]1C(=O)N2C(C(=O)O)=C(SCCN=CN)C[C@H]12 [IMI, Imipenem]", "MDR-EAEC isolates", "S"),
    ("O=C(N[C@H](CO)[C@H](O)c1ccc([N+](=O)[O-])cc1)C(Cl)Cl [CL, Chloramphenicol]", "MDR-EAEC isolates", "S"),
    ("O=C(O)c1cn(C2CC2)c2cc(N3CCNCC3)c(F)cc2c1=O [CIP, Ciprofloxacin]", "MDR-EAEC isolates", "R"),
    ("Cc1cc(NS(=O)(=O)c2ccc(N)cc2)no1 [SXT, Sulfamethoxazole]", "MDR-EAEC isolates", "S"),
    ("CN(C)[C@@H]1C(O)=C(C(N)=O)C(=O)[C@@]2(O)C(O)=C3C(=O)c4c(O)cccc4[C@@](C)(O)[C@H]3C[C@@H]12 [TE, Tetracycline]", "MDR-EAEC isolates", "R"),
    ("CO/N=C(\\C(=O)N[C@@H]1C(=O)N2C(C(=O)O)=C(CSc3nc(=O)c(=O)[nH]n3C)CS[C@H]12)c1csc(N)n1 [CTR, Ceftriaxone]", "MDR-EAEC isolates", "R"),
    ("CNC(C)C1CCC(N)C(OC2C(N)CC(N)C(OC3OCC(C)(O)C(NC)C3O)C2O)O1 (centres unmarked) [GEN, Gentamicin]", "MDR-EAEC isolates", "S"),
]
